Test description: solvent given as SMILES
Condition set: in ClC(Cl)Cl
// values below are reported emission maximum
Endpoint: emission maximum (nm)

1) CCC1=C(C)C(=O)n2c1cc1[nH]c(C(=O)OC(C)(C)C)c(C)c1c2=O: 453
2) CON(OC)c1cc2c3cc(-c4c(C)cc(C)cc4C)cc4c5cc(-c6c(C)cc(C)cc6C)cc6c7cc(B(c8c(C)cc(C)cc8C)c8c(C)cc(C)cc8C)cc8c9cc(-c%10c(C)cc(C)cc%10C)cc%10c%11cc(-c%12c(C)cc(C)cc%12C)cc%12c(c1)c2c1c(c43)c(c65)c(c78)c(c9%10)c1c%11%12: 545
3) O=C1CC(c2cccc([N+](=O)[O-])c2)c2c(c3ccccc3c3nc4ccccc4nc23)O1 (stereo not drawn): 428
4) CCCCCCCCN1C(=O)c2ccc3c4c(-c5ccc6c7ccccc7n(-c7ccccc7)c6c5)cc5c6c(ccc(c7c(-c8ccc9c%10ccccc%10n(-c%10ccccc%10)c9c8)cc(c2c37)C1=O)c64)C(=O)N(CCCCCCCC)C5=O: 647
5) CC1=C(Cc2ccccc2)C(C)=[N+]2C1=C(C)c1c(C)c(-c3csc(N4CCOCC4)n3)c(C)n1[B-]2(F)F: 607
6) O=C1[C@@H]2[C@H](C(=O)N1c1ccc3cc4ccccc4cc3c1)[C@@H]1C=C[C@H]2C1: 386
7) CC1(C)CC(NCc2ccc3ccc4cccc5ccc2c3c45)CC(C)(C)N1[O]: 376
8) c1cc2c3cscc3c3ccsc3c2s1: 395

====

Here the recorded emission maximum is given for each entry.
Test description: solvent given as SMILES
Condition set: in ClCCl
Endpoint: emission maximum (nm)

1. CC(C)(C)c1ccc2c(c1)c1cc(C(C)(C)C)ccc1n2-c1ccc(C#Cc2ccc(C#Cc3ccc(C=C(C#N)C#N)cc3)cc2)cc1: 474
2. N#CC(C#N)=Cc1ccc(-c2ccc(O)c(-c3nc4ccccc4s3)c2)o1: 612
3. COc1cccc(-c2[nH]c(=O)n3c2-c2ccccc2C3=O)c1O: 471
4. CCCCCCCCCCn1nnc(-c2ccc(C#Cc3ccc(C#Cc4ccc(-c5nnn(CCCCCCCCCC)n5)cc4)c4nc5c6ccccc6c6ccccc6c5nc34)cc2)n1: 502
5. c1ccc(C2c3ccccc3-c3cc4c(cc32)-c2ccccc2C4c2ccccc2)cc1 (stereo not given): 360
6. Oc1cc(-c2cccs2)ccc1-c1nc2ccccc2s1: 515
7. CC(C)(C)c1ccc2c3ccccc3c3cncnc3c2c1: 376
8. CCCCCCOc1ccc(N(c2ccc(OCCCCCC)cc2)c2ccc(-c3sc(-c4ccc(N(c5ccc(OCCCCCC)cc5)c5ccc(OCCCCCC)cc5)cc4)c4nc(CC)c(CC)nc34)cc2)cc1: 725
9. COc1ccc(C#CC2=C3CCc4ccccc4C3=[O+][B-](F)(F)O2)cc1: 493
10. COc1ccc2c(c1)c1cc(OC)ccc1c1c2ccc2cccc(C(=O)NC(C)(C)C)c21: 415
11. COC(=O)c1[nH]c(-c2ccc(Br)cc2)c2nnc3ccc(OC)cc3c12: 475
12. CC(=O)c1ccc(C#Cc2ccc3c(N(C)C)cc(-c4ccccc4)cc3c2)cc1: 577
13. CN(C)c1ccc(/C=C/c2cc(/C=C/c3ccc(N(C)C)cc3)ncn2)cc1: 530
14. COc1ccc2n1[B-](F)(F)[N+]1=C(SC#N)C=CC1=C2c1ccccc1: 531
15. CC(C)(C)c1ccc(-n2c(-c3ccc(N(c4ccc(-c5ccc(N(c6ccc(-c7nc8c9ccccc9c9ccccc9c8n7-c7ccc(C(C)(C)C)cc7)cc6)c6ccc(-c7nc8c9ccccc9c9ccccc9c8n7-c7ccc(C(C)(C)C)cc7)cc6)cc5)cc4)c4ccc(-c5nc6c7ccccc7c7ccccc7c6n5-c5ccc(C(C)(C)C)cc5)cc4)cc3)nc3c4ccccc4c4ccccc4c32)cc1: 430
16. CC(C)(C)c1ccc2c(c1)c1cc(C(C)(C)C)ccc1n2-c1cccc(-c2nc(-c3cccc(P(=O)(c4ccccc4)c4ccccc4)c3)nc(-c3cccc(P(=O)(c4ccccc4)c4ccccc4)c3)n2)c1: 535.02
17. CCOc1ccc(/C=C/C=C/C=C/c2ccc([N+](=O)[O-])cc2)cc1: 694
18. c1ccc(N(c2ccccc2)c2ccc(-c3ncnc4ccccc34)cc2)cc1: 528
19. Cc1ccc(-c2cc(-c3ccccc3)c3c(N)nc(N4CCCC4)c(C#N)c3n2)cc1: 517
20. O=S1(=O)C2=C(c3ccccc31)C1(c3ccccc32)c2ccccc2-c2sc3ccccc3c21 (stereo not given): 459
21. CCCCCCOc1cc(/C=C/c2cc(OCCCCCC)c(/C=C/c3cc(OCCCCCC)c(C=C4C(=O)c5ccccc5C4=O)cc3OCCCCCC)cc2OCCCCCC)c(OCCCCCC)cc1C=C1C(=O)c2ccccc2C1=O: 662
22. CC(C)(C)NC(=O)c1ccc(Br)c2ccc3c4ccc(F)cc4c4cc(F)ccc4c3c12: 394
23. CCCCN1/C(=C\c2c(-c3ccc(N(C)C)cc3)c(=O)c2=O)C=Cc2ccccc21: 585
24. Cc1cc(C)n2c1C=C1c3ccccc3C(c3c[nH]c4ccccc34)=[N+]1[B-]2(F)F: 606
25. CCCCN(CCCC)c1ccc2c(c1)C#CC#Cc1cc(C(F)(F)F)ccc1C#Cc1cc(c3cc1C#Cc1ccc(N(CCCC)CCCC)cc1C#CC#Cc1cc(C(F)(F)F)ccc1C#C3)C#C2: 558
26. CCN1c2ccc(/C=N/Nc3ccccn3)cc2Sc2cc(-c3cccc4ccccc34)ccc21: 491
27. COc1ccc2cc(-c3ccc([N+](=O)[O-])cc3)ccc2c1: 591
28. COc1ccc(C#Cc2c3cc4ccccc4cc3c(C#Cc3ccc(OC)cc3)c3cc4ccccc4cc23)cc1: 706
29. COc1cc2c(cc1OC)C1=C[C@H](c3ccc(C)cc3)C3(C(C#N)=C(C#N)N1CC2)c1cc(Br)ccc1-c1ccc(Br)cc13: 405
30. CC[B-]1(CC)c2cccc3cc4ccccc4c(c23)-c2cccc(C)[n+]21: 538
31. FC(F)(F)c1ccccc1B1c2ccccc2Nc2ccccc21: 401
32. COc1ccc(-c2c3ccccc3c(C#Cc3ccccc3)c3cc4ccccc4cc23)cc1: 550
33. C(=C\c1cccc2ccccc12)/c1ncc(-c2ccccc2)o1: 440
34. CCOC(=O)C1=C(C(=O)OCC)C2(c3ccccc3-c3c(Br)cc(Br)cc32)C2(/C=C/c3ccc(Cl)cc3)c3cc(OC)c(OC)cc3CCN12 (stereo not given): 495
35. N#Cc1ccc(-c2nc(-c3ccccc3)c3ccccn23)cc1: 477

====

Test description: solvent given as SMILES
Condition set: in CO
// map emission maximum onto a label; ranges lower range: < 400 nm; middle range: ≥ 400 nm and < 500 nm; upper range: ≥ 500 nm

1) COc1ccc(/C=C(\c2ccccc2)c2nc3ccccc3s2)cc1: middle range
2) c1ccc(-c2nc3c(c4c2-c2ccccc2CC4)-c2ccccc2CC3)cc1: lower range
3) Cc1cc(=O)oc2cc3c4ccccc4c4ccccc4c3cc12: middle range
4) C(=C\c1nc2ccccc2o1)/c1ccccc1: lower range
5) CCc1c(C)[nH]c(C2=[N+]3C(=Cc4c(C)c(CC)c(C)n4[B-]3(F)F)c3ccccc32)c1C: upper range
6) Cc1ccc(C2=C3C=C(I)C=[N+]3[B-](F)(F)n3cccc32)cc1: upper range
7) CCOC(=O)COc1ccc(/C=C/C2=C3c4ccccc4C(c4[nH]c(C)cc4C)=[N+]3[B-](F)(F)n3c(/C=C/c4ccc(OCC(=O)OCC)cc4)cc(C)c32)cc1: upper range
8) CN(C)c1cc(C#N)c(N(C)C)c(C#N)c1: upper range
9) CC(C)(C)C1Nc2ccccc2C(=O)N1Cc1ccccc1 (configuration not stated): middle range
10) O=C1/C(=C\c2ccc(N(c3ccccc3)c3ccccc3)cc2)S(=O)(=O)c2ccccc21: upper range

====

This section presents molecules with their documented emission maximum values.
Test description: solvent given as SMILES
Condition set: in CCCCCC
Endpoint: emission maximum (nm)

1. CCCCC1(c2ccccc2)Nc2c(-c3ccc(N(C)C)cc3)ccc(-c3ccc(N(C)C)cc3)c2N=C1c1ccccc1 (centres undefined): 530
2. CN(C)c1ccc(-c2nc3c(c4c2-c2ccc(C#N)cc2CC4)-c2ccc(C#N)cc2CC3)cc1: 444
3. COc1ccc2c(c1)N(c1ccccc1-c1ccccc1)c1cc3c(cc1=N2)Oc1c(cc(C(C)(C)C)cc1C(C)(C)C)N=3: 583
4. CCCCCCCCN1c2ccc(C#Cc3ccc(F)cc3)cc2Sc2cc(C=O)ccc21: 488

====

Test description: solvent given as SMILES
Condition set: in CN(C)C=O
Output schema: class label derived from emission maximum. Mapping: bucket 1 (below 500 nm), bucket 2 (500 nm to below 600 nm), bucket 3 (600 nm or more)

1) CN(C)c1cc(C#N)c(N(C)C)c(C#N)c1: bucket 2
2) Cc1ccc2[nH]c(-c3ccc(-c4ccc(-c5ccc(-c6nc7cc(C)ccc7[nH]6)cc5)cc4)cc3)nc2c1: bucket 1
3) COc1ccc(C(=O)/C=C/c2ccc(N(C)C)cc2)cc1OC: bucket 2
4) CC1=C(Cc2ccccc2)C(C)=[N+]2C1=C(C)c1c(C)c(-c3csc(N4CCOCC4)n3)c(C)n1[B-]2(F)F: bucket 2
5) S=c1[nH]nc(-c2ccc(/C=C/c3ccc(-c4n[nH]c(=S)o4)cc3)cc2)o1: bucket 1
6) F[B-]1(F)n2c(c3cc4ccccc4cc3c2-c2ccccc2)C=C2c3cc4ccccc4cc3C(c3ccccc3)=[N+]21: bucket 3
7) Cc1nc2cccc(-c3nc4ccccc4s3)c2c(=O)[nH]1: bucket 1
8) O=[N+]([O-])c1ccc(NCCN(Cc2c3ccccc3cc3ccccc23)c2ccc([N+](=O)[O-])cc2[N+](=O)[O-])c([N+](=O)[O-])c1: bucket 1
9) O=C(O)c1ccc2cc3cc(C(=O)O)ccc3cc2c1: bucket 1
10) CCOC(=O)CN(CC(=O)OCC)c1ccc(-c2cc(-c3ccccn3)nc(-c3ccccn3)c2)cc1: bucket 1
11) CCn1c2cc(OC)ccc2c2c3nsnc3c3c4ccc(OC)cc4n(CC)c3c21: bucket 2
12) COc1ccc(-c2nc(C)cc(-c3ccc(-n4c5ccccc5c5ccccc54)cc3)n2)cc1: bucket 1
13) CCCCCCCN1C(=CC2=C([O-])C(=CC3=[N+](CCCCCCC)c4ccccc4C3(C)C)C2=C(C#N)C#N)Sc2ccccc21: bucket 3
14) C(=C\c1ccc(/C=C/c2ccc(N(c3ccccc3)c3ccccc3)cc2)c2nsnc12)/c1ccc(N(c2ccccc2)c2ccccc2)cc1: bucket 3
15) Cc1cc(-c2ccc(-c3nc4ccccc4[nH]3)cc2)c(C)cc1-c1ccc(-c2nc3ccccc3[nH]2)cc1: bucket 1
16) Fc1ccc(-c2nc3n(c2-c2ccncc2)CCS3)cc1: bucket 1
17) CC1=CC(C)=[N+]2C1=C(c1c3ccccc3cc3ccccc13)c1c(C)cc(C)n1[B-]2(F)F: bucket 2
18) c1ccc(N2c3ccc4ccccc4c3-c3c4ccccc4nc[n+]3[B-]2(c2ccccc2)c2ccccc2)cc1: bucket 3
19) CC(C)(C)c1ccc2c(c1)c1cc(C(C)(C)C)ccc1n2-c1cccc(-c2nc(-c3cccc(P(=O)(c4ccccc4)c4ccccc4)c3)nc(-c3cccc(P(=O)(c4ccccc4)c4ccccc4)c3)n2)c1: bucket 2
20) NS(=O)(=O)c1ccc(N2N=C(c3ccc(O)cc3)CC2c2ccc(Br)cc2)cc1 (stereo not given): bucket 1
21) Cc1ccc2nc(-c3cccc4nc(C)[nH]c(=O)c34)[nH]c2c1: bucket 1
22) O=Cc1c(O)c(-c2nc3ccccc3s2)cc2ccccc12: bucket 2
23) CC(C)(C)c1ccc2c(c1)c1cc(C(C)(C)C)ccc1n2-c1ccc(-c2nc(-c3ccc(-n4c5ccc(C(C)(C)C)cc5c5cc(C(C)(C)C)ccc54)cc3)nc(-c3ccc(P(=O)(c4ccccc4)c4ccccc4)cc3)n2)cc1: bucket 2
24) COC1=C/C(=C\C=C2C=CN(Cc3ccc(Br)cc3)C=C2)C=CC1=O: bucket 3
25) Cc1cc(O)c(C(C)C)cc1/N=C/c1ccc(C(F)(F)F)cc1: bucket 1
26) COC(=O)c1ccc2ccc3cccc4ccc1c2c34: bucket 1
